Experiment: Half life in dog at 0.5 mg/kg, iv
Format: ADME, organism-based, Canis lupus familiaris
Details: in vivo

compound	half-life (min)
Cl.NC(=O)[C@@H]1CC[C@H](c2ccc(OCc3ccccc3F)cc2)N1 [RAXATRIGINE HYDROCHLORIDE]	132

* * *

Test: Total blood clearance in rat blood at 0.5 mg/kg, iv
Format: ADME, organism-based

molecule	clearance / mL/min/kg
Cl.NC(=O)[C@@H]1CC[C@H](c2ccc(OCc3ccccc3F)cc2)N1 [RAXATRIGINE HYDROCHLORIDE]	39
NC(=O)[C@@H]1CC[C@H](c2ccc(OCc3ccc(F)cc3)cc2)N1	91
NC(=O)[C@@H]1CC[C@H](c2ccc(Oc3ccccc3)cc2)N1	40
N#Cc1ccccc1COc1ccc([C@H]2CC[C@@H](C(N)=O)N2)cc1	37
